Consider the following molecules and their measured normalized growth readings.
# run_description: chemical genetic growth profiling, strain panel (AID 1159580);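 further: tested at 20 µM; growth read once vehicle control cultures reached saturation at 30 °C; 1 = growth at the plate median or of vehicle wells; lower values mean less growth of the strain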
# protocol_conditions: S. cerevisiae deletion strains, growth OD, locus YOR136W, strain idh2, stronger effect = lower value
Out of some 5,500 compounds screened, about 2,000 (36%) were called active. Another 18% or so got no clear call; they are omitted. The list shows a part of the results.
Output spec: single numeric token, no unit.

Example cases with answers are listed next.
# molecule, normalized growth
measured = [
    ("COc1ccc2[nH]cc(CCN)c2c1", 0.998),
    ("CC1(C)CC[C@]2(C)CC[C@]3(C)C(=CCC4[C@@]5(C)CC[C@H](O)C(C)(C)C5CC[C@]43C)C2C1 (stereo partly drawn)", 0.994),
]

Please find the next molecule below.
Data request: Tell me the measured normalized growth of Nc1c2ccccc2nc2ccccc12 , please.
Data returned: 0.805
